# System: HTT CJ mRNA
# procedureText: Gene panel canonical junction qPCR assay: HTT
# Type: cell-based
# runConditions: Table 3, concentration having 50% response in CJ decrease, read-out: HTT IC50 (decrease in CJ mRNA levels)
outcomeMeasure: IC50

- Cc1cn2cc(NC(=O)c3sc(N4CC5(CNC5)C4)cc3F)cc(F)c2n1: 1 to 10 µM
- Cc1cn2cc(NC(=O)c3sc([C@H]4CCN[C@@H](C)C4)cc3F)cc(F)c2n1: 0.1 to 1 µM
- Cc1cn2cc(NC(=O)c3sc(C4C[C@@H](C)N[C@@H](C)C4)cc3F)cc(F)c2n1 (stereo partly drawn): 0.1 to 1 µM
